# Tested on: Nicotinate-nucleotide adenylyltransferase NadD (Staphylococcus aureus N315)
# Experimental protocol: inhibitors of S. aureus NadD, primary screen, biochemical, colorimetric, uHTS (AID 602399)
# Cond: purified NadD enzyme, colorimetric absorbance read-out; at 20 µM; hits give high values
About 2,800 (0.78%) of roughly 360,000 compounds were called active. Shown is part of a subset that was picked to be rich in actives.
Answer each item with its documented inhibition.
Numbers only, in %.

Working through the 6 compounds below one at a time, give inhibition for each.
1. CN(CCC1CCOCC1)Cc1cn[nH]c1-c1ccc(-c2ccccc2)cc1
2. Cc1nc(N)nc(Cl)c1CCC1OCCO1
3. CS(=O)(=O)c1ccc2c(c1)SC1=NC(=O)/C(=C/c3ccco3)C(=N)N12
4. Cc1nn2c(c1-c1ccccc1)N=C(c1ccco1)CC2c1ccccc1 (stereo unspecified)
5. COc1ccc2c3c1O[C@H]1C[C@@H](O)C=C[C@@]31CCN(C)C2
6. CCN(CC)c1ccc(C(=O)NNC(=O)CCc2nc3ccccc3c(=O)[nH]2)cc1

1: -6.91; 2: -2.19; 3: 35; 4: 35.5; 5: -4.23; 6: -1.03
